Molecular target: T1, hIL-4Rα on cells (human, UniProt P24394 26-825)
T1 sequence: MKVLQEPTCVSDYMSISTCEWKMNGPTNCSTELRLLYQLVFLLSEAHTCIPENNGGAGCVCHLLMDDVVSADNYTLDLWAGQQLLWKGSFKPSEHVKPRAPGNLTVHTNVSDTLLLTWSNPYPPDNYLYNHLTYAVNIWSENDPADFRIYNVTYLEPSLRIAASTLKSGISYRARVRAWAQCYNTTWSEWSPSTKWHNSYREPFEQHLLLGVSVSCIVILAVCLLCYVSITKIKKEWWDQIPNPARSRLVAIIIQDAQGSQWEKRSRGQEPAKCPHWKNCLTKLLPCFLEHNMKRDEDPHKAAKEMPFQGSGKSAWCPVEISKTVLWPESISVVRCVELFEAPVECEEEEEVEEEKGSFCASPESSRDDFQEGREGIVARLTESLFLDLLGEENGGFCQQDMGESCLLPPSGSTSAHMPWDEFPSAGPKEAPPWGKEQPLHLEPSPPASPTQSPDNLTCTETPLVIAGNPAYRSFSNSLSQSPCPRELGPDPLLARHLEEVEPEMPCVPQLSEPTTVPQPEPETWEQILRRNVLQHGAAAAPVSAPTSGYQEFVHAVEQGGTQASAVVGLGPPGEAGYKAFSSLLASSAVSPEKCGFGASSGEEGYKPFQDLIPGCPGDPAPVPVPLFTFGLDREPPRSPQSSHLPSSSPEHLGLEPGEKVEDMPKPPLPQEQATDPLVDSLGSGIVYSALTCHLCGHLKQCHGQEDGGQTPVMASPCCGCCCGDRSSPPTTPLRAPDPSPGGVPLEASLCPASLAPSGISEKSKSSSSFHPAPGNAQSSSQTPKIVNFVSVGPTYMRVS
Assay: cell-based or functional assay
property: Relative Inhibition of IL-13 induced pSTAT6 IC50

Construct 13 (mAb422) (antibody, IgG4, V domains shown, VH/VL only) VH: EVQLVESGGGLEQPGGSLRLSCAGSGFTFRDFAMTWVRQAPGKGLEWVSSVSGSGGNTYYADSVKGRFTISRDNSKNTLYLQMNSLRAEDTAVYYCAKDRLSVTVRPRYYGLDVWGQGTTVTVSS VL: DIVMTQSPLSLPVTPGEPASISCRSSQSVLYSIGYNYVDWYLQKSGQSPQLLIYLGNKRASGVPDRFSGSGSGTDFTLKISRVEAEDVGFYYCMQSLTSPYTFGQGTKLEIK ... 0.824 relative to dupilumab

stdin: # query: Relative Inhibition of IL-13 induced pSTAT6 IC50 of entry Construct 43 (mAb482) (antibody, IgG4, V domains shown, VH/VL only) VH: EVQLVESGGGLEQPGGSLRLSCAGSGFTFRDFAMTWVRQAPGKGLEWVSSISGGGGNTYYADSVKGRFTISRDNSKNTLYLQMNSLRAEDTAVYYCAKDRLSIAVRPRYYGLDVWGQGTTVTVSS VL: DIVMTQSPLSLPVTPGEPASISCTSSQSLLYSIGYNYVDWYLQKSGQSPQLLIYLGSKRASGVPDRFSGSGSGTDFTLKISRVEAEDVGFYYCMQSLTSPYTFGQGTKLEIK
stdout: 2.29 relative to dupilumab
